System: SN12C
experimental-details: NCI tumour cell line growth inhibition, 48 h
Calls of active or inactive are those of the source. Rule as the data show it: active = GI50 up to about 1.1 µM and inactive = higher.
Classes used: class 1 (active), class 0 (inactive)

| molecule | answer-label |
| --- | --- |
| c1cnc2c(c1)-n1cccc1C1(CCSC1)NN2 (stereo not drawn) | class 0 |
| O=C(c1ccccc1)N1C2CCC1C(C(F)(F)F)=C2C(F)(F)F | class 0 |
| C=C[C@]1(C)CCC2=C(CCC3C2(C)CCC[C@@]3(C)COC(C)=O)C1 (stereo partly drawn) | class 0 |
| COC(C[C@H]1CCCC[C@]1(O)/C(=C\CO[Si](C(C)C)(C(C)C)C(C)C)Sc1ccccc1)OC | class 0 |
| CC(=O)c1c(C)cn(S(=O)(=O)NC(=O)Nc2nncs2)c1C | class 0 |
| COc1ccc(C2OC(=O)c3ccc4ccccc4c32)c(C)c1 (stereo not drawn) | class 0 |
| COCN(C)c1nc(N(C)C)nc(N(C)C)n1 | class 0 |
| Cn1c(=S)sc2nc3ccccc3n2c1=S | class 0 |
| CCOC(=O)c1nc2ccccc2nc1Nc1ccc(Cl)c(Cl)c1 | class 0 |
| CC(=O)O[C@@]12[C@@H]3O[C@@]4(O)C[C@]5(C)[C@H]6C[C@@](C(C)C)(O[C@H]5c5ccoc5)O[C@H]1[C@]6(C4)O[C@]2(O)C(C)=CC3(C)C | class 0 |
| CCC[C@H](C)[C@H]1NC(=O)[C@@H](NC(=O)[C@@H](CC(C)C)N(C)C(=O)C2CCCN2C(=O)[C@H](C)O)[C@@H](C)OC(=O)[C@H](CC(C)C)N(C)C(=O)[C@@H]2CCCN2C(=O)[C@H](CC(C)C)NC(=O)[C@@H](C)C(=O)[C@H](C(C)C)OC(=O)C[C@@H]1O (stereo partly drawn) | class 1 |
| CC1=C(C(=O)Nc2ccc(C)cc2)C(c2cccc([N+](=O)[O-])c2)C(C(=O)Nc2ccc(C)cc2)=C(C)N1 | class 0 |
| CCOC(=O)C1(Br)C(c2ccccc2)NC(=O)N(C2OC(COC(=O)c3ccccc3)C(OC(=O)c3ccccc3)C2OC(=O)c2ccccc2)C1(C)Br (stereo not drawn) | class 0 |
| CCc1nnc(S)n1/N=C\c1ccc(-c2ccccc2[N+](=O)[O-])o1 | class 0 |
| Cc1cnc2c(c1)C(=O)C1=C(C2=O)C2OC(=O)CC2OC1(C)C (stereo not drawn) | class 1 |
| C=C1C2CC3CCC2C(OC(=O)c2ccccc2C(=O)O)C13 (stereo not drawn) | class 0 |
| CCCCCCCCSC(=O)NCCCC | class 0 |
| Cc1ccc2c(c1C)CC1(Cc3ccc(C)c(C)c3C1=O)C2=O (stereo not drawn) | class 0 |
